Reference for the values: patent US8959984B2

- target-desc: UniProt P49674
- Sequence (P49674 whole entry): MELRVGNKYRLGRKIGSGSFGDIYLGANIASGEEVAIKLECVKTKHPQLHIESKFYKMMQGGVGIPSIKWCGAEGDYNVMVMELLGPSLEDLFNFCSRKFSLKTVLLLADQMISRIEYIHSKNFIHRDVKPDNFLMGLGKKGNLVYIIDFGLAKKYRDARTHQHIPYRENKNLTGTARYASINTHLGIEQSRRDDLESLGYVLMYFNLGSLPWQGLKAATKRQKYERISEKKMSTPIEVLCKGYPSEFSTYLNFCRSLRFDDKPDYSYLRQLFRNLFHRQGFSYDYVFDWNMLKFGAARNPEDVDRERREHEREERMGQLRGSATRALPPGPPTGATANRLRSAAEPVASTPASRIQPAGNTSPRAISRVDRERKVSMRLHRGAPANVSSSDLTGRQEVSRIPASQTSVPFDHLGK
- assay-details: binding to AX14596 beads (HeLa lysate, SILAC MS)
pKi: −log10 of the molar value.
metric: pKi

{"sample-smiles": "COc1cc2ncnc(Nc3ccc(F)c(Cl)c3)c2cc1OCCCN", "metric": "pKi", "endpoint-result": 2.39}

###

- target-desc: IKKb (IKBKB, IPI00024709) (Homo sapiens, UniProt O14920)
- Construct: endogenous in cells
- Sequence (O14920 whole entry): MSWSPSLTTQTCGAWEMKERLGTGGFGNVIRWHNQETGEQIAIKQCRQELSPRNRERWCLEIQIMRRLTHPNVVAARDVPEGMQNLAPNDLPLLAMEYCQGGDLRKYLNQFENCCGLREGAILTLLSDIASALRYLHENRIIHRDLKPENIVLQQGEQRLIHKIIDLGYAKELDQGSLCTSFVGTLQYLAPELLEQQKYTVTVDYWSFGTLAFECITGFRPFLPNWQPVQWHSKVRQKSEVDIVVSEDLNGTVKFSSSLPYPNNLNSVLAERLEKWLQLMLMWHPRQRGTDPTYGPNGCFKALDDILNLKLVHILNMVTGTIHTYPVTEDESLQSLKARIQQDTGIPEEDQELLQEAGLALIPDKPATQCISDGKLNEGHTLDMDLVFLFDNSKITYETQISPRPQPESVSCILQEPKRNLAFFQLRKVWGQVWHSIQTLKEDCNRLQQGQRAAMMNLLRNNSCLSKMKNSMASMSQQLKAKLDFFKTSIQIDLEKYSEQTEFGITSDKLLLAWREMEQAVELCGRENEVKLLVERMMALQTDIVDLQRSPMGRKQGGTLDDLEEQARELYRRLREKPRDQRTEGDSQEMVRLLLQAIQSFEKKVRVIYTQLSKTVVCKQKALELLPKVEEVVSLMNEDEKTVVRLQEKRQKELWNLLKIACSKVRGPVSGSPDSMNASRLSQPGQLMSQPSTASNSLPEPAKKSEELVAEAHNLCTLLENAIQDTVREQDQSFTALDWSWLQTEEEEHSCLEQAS
- assay-details: binding to VI16742 beads (HeLa lysate, SILAC MS)
- reported-conditions: immobilized VI16742

{"sample-smiles": "CC(C)n1c(=O)ccc2cnc(Nc3ccc(OCCN)cc3)nc21", "Ki, µM": 201}

###

- target-desc: GSK3A (Homo sapiens, UniProt P49840)
- Sequence (P49840 whole entry): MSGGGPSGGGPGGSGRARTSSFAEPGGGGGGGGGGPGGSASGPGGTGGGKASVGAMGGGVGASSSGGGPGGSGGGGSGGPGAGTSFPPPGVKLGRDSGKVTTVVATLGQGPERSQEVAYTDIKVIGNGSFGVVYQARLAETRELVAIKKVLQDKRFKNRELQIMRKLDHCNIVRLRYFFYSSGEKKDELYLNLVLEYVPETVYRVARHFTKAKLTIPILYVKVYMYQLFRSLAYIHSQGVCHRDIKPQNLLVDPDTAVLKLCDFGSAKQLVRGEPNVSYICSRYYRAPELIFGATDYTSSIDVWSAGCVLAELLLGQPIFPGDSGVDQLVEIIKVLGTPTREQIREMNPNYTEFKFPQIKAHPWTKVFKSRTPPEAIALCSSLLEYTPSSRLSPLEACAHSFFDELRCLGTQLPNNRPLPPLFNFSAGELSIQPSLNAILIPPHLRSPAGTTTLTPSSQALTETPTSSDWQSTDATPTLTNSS
- assay-details: binding to immobilized V16742 (IVA1/IVA2, HeLa lysate, MS)
- reported-conditions: EXPERIMENT 2, read-out: Kd

{"compound": "CC(C)n1c(=O)ccc2cnc(Nc3ccc(OCCN)cc3)nc21 [compound 16742]", "Kd": "18.8 µM"}

###

- target-desc: Erk1 (Homo sapiens)
- Sequence (P27361 whole entry): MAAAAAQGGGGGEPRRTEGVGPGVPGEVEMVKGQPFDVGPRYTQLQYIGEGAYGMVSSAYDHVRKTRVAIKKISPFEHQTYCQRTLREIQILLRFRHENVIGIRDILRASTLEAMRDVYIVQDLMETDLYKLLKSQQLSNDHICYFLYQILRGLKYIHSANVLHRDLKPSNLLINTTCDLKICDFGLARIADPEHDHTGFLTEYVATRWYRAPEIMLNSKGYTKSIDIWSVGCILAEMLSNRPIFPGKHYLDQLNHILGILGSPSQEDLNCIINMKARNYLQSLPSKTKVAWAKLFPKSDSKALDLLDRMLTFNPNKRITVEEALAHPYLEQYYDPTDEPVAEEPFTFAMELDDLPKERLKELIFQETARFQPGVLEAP
- assay-details: binding to immobilized V16742 (IVA1/IVA2, HeLa lysate, MS)

{"sample-smiles": "CC(C)n1c(=O)ccc2cnc(Nc3ccc(OCCN)cc3)nc21", "target-desc": "Erk1 (Homo sapiens)", "Kd (µM)": 57.8}

###

- target-desc: MAP3K6 (Homo sapiens, UniProt O95382)
- Construct: endogenous in cells; host or cells: HeLa S3
- Sequence (O95382 whole entry): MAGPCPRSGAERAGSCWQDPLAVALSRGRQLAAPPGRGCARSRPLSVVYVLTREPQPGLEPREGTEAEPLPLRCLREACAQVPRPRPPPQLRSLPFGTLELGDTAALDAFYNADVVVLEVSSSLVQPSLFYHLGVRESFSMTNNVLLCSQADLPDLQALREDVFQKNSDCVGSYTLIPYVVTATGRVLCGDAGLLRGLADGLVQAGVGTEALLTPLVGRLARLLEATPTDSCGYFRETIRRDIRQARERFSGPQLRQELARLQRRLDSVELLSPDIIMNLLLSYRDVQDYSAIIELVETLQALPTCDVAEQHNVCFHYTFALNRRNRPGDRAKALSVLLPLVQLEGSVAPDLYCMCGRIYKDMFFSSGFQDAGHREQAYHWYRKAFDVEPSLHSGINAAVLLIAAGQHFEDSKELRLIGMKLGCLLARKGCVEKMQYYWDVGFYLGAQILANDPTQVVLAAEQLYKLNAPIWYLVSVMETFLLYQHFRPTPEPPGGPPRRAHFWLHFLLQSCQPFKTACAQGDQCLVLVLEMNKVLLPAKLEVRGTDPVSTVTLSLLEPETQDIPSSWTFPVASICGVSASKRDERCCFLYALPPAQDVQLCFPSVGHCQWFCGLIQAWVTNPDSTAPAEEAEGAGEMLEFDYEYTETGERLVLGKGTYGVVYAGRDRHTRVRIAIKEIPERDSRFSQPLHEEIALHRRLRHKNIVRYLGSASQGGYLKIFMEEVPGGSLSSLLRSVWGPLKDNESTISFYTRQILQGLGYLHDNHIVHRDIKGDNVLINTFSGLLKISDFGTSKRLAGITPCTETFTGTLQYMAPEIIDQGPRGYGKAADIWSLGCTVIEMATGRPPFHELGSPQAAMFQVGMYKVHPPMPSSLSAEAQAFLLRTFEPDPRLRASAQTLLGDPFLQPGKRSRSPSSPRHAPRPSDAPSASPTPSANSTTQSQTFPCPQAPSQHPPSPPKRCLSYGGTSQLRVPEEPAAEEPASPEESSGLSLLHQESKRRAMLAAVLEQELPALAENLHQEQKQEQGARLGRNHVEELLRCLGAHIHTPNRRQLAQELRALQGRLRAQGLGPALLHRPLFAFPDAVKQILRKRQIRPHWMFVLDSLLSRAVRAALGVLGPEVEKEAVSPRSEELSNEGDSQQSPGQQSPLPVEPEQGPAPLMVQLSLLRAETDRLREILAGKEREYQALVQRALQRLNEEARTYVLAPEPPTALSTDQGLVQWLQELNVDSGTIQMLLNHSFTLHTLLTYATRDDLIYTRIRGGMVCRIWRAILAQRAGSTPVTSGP
- assay-details: binding to immobilized V16742 (IVA1/IVA2, HeLa lysate, MS)
- reported-conditions: average of two experiments, read-out: Kd Avg

{"sample-smiles": "CC(C)n1c(=O)ccc2cnc(Nc3ccc(OCCN)cc3)nc21", "Kd [µM]": 192}

###

- target-desc: DYRK1A (Homo sapiens)
- Construct: endogenous in cells; host or cells: HeLa S3
- assay-details: binding to immobilized V16742 (IVA1/IVA2, HeLa lysate, MS)
- reported-conditions: Experiment 2, read-out: Kd

{"compound": "CC(C)n1c(=O)ccc2cnc(Nc3ccc(OCCN)cc3)nc21 [V16742]", "Kd [µM]": 137}

###

- target-desc: MET (IPI00294528) (Homo sapiens)
- Construct: endogenous in cells
- Sequence (P08581 25-1390): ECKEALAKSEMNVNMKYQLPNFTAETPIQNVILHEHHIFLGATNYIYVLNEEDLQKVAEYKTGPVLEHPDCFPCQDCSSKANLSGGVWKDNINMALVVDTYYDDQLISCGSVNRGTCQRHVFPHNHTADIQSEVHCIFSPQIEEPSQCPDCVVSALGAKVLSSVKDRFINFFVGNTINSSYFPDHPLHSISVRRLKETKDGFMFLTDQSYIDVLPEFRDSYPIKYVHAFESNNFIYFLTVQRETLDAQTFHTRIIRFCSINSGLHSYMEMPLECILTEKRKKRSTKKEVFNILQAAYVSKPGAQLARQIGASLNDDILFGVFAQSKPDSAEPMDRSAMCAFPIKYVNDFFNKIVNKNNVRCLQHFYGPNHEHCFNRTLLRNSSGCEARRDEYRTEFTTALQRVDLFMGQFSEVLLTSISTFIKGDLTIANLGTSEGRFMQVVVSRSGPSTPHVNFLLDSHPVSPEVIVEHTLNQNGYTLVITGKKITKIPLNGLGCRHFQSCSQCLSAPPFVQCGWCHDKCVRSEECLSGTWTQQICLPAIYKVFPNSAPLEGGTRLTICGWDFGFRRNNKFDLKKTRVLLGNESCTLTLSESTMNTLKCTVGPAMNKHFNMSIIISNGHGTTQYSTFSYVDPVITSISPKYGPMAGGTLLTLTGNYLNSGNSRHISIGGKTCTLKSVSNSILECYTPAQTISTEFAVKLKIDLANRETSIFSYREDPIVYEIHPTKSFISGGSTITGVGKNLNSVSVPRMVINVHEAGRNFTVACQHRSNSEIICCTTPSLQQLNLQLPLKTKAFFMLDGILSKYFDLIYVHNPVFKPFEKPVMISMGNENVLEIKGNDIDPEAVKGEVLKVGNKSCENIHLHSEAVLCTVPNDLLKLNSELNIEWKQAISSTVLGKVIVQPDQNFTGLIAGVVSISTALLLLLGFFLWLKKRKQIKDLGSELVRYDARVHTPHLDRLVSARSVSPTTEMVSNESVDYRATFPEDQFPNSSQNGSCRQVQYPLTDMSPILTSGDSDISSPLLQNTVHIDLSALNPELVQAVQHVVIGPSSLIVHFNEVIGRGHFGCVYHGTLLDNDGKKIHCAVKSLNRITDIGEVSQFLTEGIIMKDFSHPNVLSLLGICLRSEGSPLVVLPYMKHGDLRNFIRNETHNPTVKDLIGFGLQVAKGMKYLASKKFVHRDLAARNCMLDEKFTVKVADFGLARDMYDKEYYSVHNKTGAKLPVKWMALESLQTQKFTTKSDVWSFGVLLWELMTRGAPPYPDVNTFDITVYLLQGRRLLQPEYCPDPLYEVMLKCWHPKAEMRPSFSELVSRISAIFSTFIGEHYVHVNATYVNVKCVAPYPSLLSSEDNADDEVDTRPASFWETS
- assay-details: binding to VI16742 beads (HeLa lysate, SILAC MS)
- reported-conditions: immobilized VI16742
pKi: −log10 of the molar value.
metric: pKi

{"sample-smiles": "CC(C)n1c(=O)ccc2cnc(Nc3ccc(OCCN)cc3)nc21", "endpoint-result": 4.02}

###

- target-desc: ERK2 (Homo sapiens)
- assay-details: binding to immobilized V16742 (IVA1/IVA2, HeLa lysate, MS)
- reported-conditions: Erk2; EXPERIMENT 1; read-out: Kd
pKd: −log10 of the molar value.
metric: pKd

{"sample-smiles": "CC(C)n1c(=O)ccc2cnc(Nc3ccc(OCCN)cc3)nc21", "endpoint-result": 4.45}

###

- target-desc: p38a (MAPK14, IPI00221141) (Homo sapiens)
- Sequence (Q16539 1-360 isoform Q16539-2): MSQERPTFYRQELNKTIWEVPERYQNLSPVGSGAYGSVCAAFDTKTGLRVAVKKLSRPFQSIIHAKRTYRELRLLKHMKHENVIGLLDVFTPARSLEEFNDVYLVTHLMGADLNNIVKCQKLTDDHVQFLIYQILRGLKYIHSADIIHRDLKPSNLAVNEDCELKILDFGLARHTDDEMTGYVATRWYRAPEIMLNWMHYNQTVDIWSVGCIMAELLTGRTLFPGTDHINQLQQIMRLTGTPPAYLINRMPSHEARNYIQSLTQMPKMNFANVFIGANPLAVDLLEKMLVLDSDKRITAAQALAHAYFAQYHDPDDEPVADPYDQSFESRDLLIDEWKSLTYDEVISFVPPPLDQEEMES
- assay-details: binding to VI16742 beads (HeLa lysate, SILAC MS)
- reported-conditions: immobilized VI16742
pKi: −log10 of the molar value.

{"compound": "CC(C)n1c(=O)ccc2cnc(Nc3ccc(OCCN)cc3)nc21 [V16742]", "target-desc": "p38a (MAPK14, IPI00221141) (Homo sapiens)", "pKi": 4.03}
